test system: 556581-035-R-J1-PDC complex spheroid growth; assay: Anticancer human tumor 556581-035-R-J1-PDC patient-derived ovarian carcinoma cell line growth inhibition [AhR]; details: second compound 3.16 µM; first compound 0.0949 µM; stronger effect = lower value;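 also: compound exposure lasted 7 days; 100% = DMSO vehicle control growth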

COMPOUND	viability, T/C [%]
Nc1ncn(C2CC(O)C(CO)S2)c(=O)n1 (stereo unspecified) + CC(CO)NC(=O)c1cc(-c2ccc(Cl)cc2)nn(-c2cnn(C)c2)c1=O	97.1
CCN(c1cc(-c2ccc(CN3CCOCC3)cc2)cc(C(=O)NCc2c(C)cc(C)[nH]c2=O)c1C)C1CCOCC1 + CC(CO)NC(=O)c1cc(-c2ccc(Cl)cc2)nn(-c2cnn(C)c2)c1=O	90.7
CC(C)CC(NC(=O)C(Cc1ccccc1)NC(=O)c1cnccn1)B(O)O (stereo unspecified) + Cc1cncc(-c2nc(NCCc3c[nH]c4ccccc34)c3ncn(C(C)C)c3n2)c1	0.7
CC(C)CC(NC(=O)C(Cc1ccccc1)NC(=O)c1cnccn1)B(O)O (stereo unspecified) + Cc1ccccc1N=Nc1ccc(NC(=O)c2ccnn2C)c(C)c1	0.17
O=C(C=Cn1cnc(-c2cc(C(F)(F)F)cc(C(F)(F)F)c2)n1)NNc1cnccn1 + Cc1ccccc1N=Nc1ccc(NC(=O)c2ccnn2C)c(C)c1	79.8
CCc1c2c(nc3ccc(O)cc13)-c1cc3c(c(=O)n1C2)COC(=O)[C@]3(O)CC + Cc1cncc(-c2nc(NCCc3c[nH]c4ccccc34)c3ncn(C(C)C)c3n2)c1	14.6
